TESTED_SYSTEM: Adrenergic receptor alpha (Rattus norvegicus) (UniProt P15823+P23944+P43140+P22086+P19328+P22909)
ASSAY_NAME: Alpha adrenergic activity was evaluated as concentration (iv) which increases the arterial pressure by 20 mmHg in the pithed rat
Format: functional, organism-based
DETAILS: Artery
# key: entry, value: C20
Note: unit µg/kg is implicit; provide only the numeric part.

Known results for molecules:
MOLECULE | C20 (µg/kg)
FC(F)(F)c1ccc2c(c1)CC1(CC2)CN=CN1 (centres undefined) | 320
CN1C=NCC12CCc1ccccc1C2 (centres undefined) | 675
C1=NCC2(CCc3ccccc3C2)N1 (centres undefined) | 4

Q) For Clc1cc(Cl)c2c(c1)CC1(CC2)CN=CN1 (centres undefined) , what is its reported C20?
A) 19

Q) Value lookup for C20; key = `FC(F)(F)c1ccc(Cl)c(NC2=NCCN2)c1`
A) 10

###

TESTED_SYSTEM: Adrenergic receptor alpha (Rattus norvegicus) (UniProt P15823+P23944+P43140+P22086+P19328+P22909)
ASSAY_NAME: Alpha adrenergic activity was evaluated as concentration (iv) which increases the arterial pressure by 20 mmHg in the pithed rat
Format: functional, organism-based
DETAILS: Artery
PROPERTY: C20

COMPOUND | C20
NC1=NC2(CCc3ccccc3C2)CN1 (stereo not drawn) | 57 µg/kg
Cc1cc2c(cc1C)CC1(CC2)CN=CN1 (stereo not drawn) | 37 µg/kg

Next compound, C20 to be filled in.
Q) I have this compound here, CCOc1ccc(OCC)c2c1CCC1(CN=CN1)C2 (stereo not drawn) , and I need its recorded C20.
A) 0.6 µg/kg

###

Measured C20 accompanies every entry in the list below.
TESTED_SYSTEM: Adrenergic receptor alpha (Rattus norvegicus) (UniProt P15823+P23944+P43140+P22086+P19328+P22909)
ASSAY_NAME: Alpha adrenergic activity was evaluated as concentration (iv) which increases the arterial pressure by 20 mmHg in the pithed rat
Type: functional, organism-based
DETAILS: Artery
Express the result in µg/kg but write the number alone.

Completed entries (count: 3):
COMPOUND | VAL
COc1ccc(OC)c2c1CCC1(CN=CN1)C2 (configuration not stated) | 0.05
Cc1ccc2c(c1)CC1(CC2)CN=CN1 (configuration not stated) | 8
COc1cccc2c1CCC1(CN=CN1)C2 (configuration not stated) | 0.85

Q) What value of C20 has been reported for the following compound? CCOc1ccc(OC)c2c1CCC1(CN=CN1)C2 (configuration not stated)
A) 0.06

Q) Entry `COc1ccc(SC)c2c1C[C@@H]1[C@@H](C2)OCCN1C` : reported C20 = ?
A) 23

Q) Which measured C20 value corresponds to Cc1ccc2c(c1)CCC1(CN=CN1)C2 (configuration not stated) ?
A) 5.4

Q) Entry under review: CC(C)(C)c1ccc2c(c1)CC1(CC2)CN=CN1 (configuration not stated) . Reported C20?
A) 465

###

Organism: Canis familiaris
ASSAY_NAME: Maximal contractile response obtained with the agonist (expressed as a percentage of the maximal contraction to phenylephrine in the dog saphenous vein)
Assay type: functional, Canis lupus familiaris
PROPERTY: Emax

Field: example entries. Status: answers known.
MOLECULE | Emax
CC(C)Oc1ccc2c(c1)CCC1(CN=CN1)C2 (configuration not stated) | 15
CC1=NCC2(CCc3ccccc3C2)N1C (configuration not stated) | 0
CN1C=NC2(CCc3ccccc3C2)C1 (configuration not stated) | 31
Fc1ccc2c(c1)CC1(CC2)CN=CN1 (configuration not stated) | 67
CC(C)c1ccc2c(c1)CC1(CC2)CN=CN1 (configuration not stated) | 53

Q) Would you kindly share the measured Emax for NC1=NC2(CCc3cccc(Cl)c3C2)CO1 (configuration not stated) ?
A) 117

Q) Find the recorded Emax belonging to COc1ccc(Cl)c2c1CCC1(CN=CN1)C2 (configuration not stated) and report it.
A) 106

Q) GET /values?readout=Emax&item= C1=NC2(CCc3ccccc3C2)CO1 (configuration not stated)
A) 0

Q) What value of Emax has been recorded for this entry: NC1=NC2(CCc3ccccc3C2)CN1 (configuration not stated)
A) 36

Q) Look up Emax for this molecule: CCOc1ccc(OC)c2c1CCC1(CN=CN1)C2 (configuration not stated)
A) 98

Q) Param item = `FC(F)(F)c1ccc(Cl)c(NC2=NCCN2)c1` ; retrieve measured Emax.
A) 81

Q) For the molecule shown here, Cc1ccc(C)c2c1CCC1(CN=CN1)C2 (configuration not stated) , give the reported Emax.
A) 84

Q) Which Emax is reported for this molecule? Cc1cc(C)c2c(c1)CC1(CC2)CN=CN1 (configuration not stated)
A) 66

Q) Can you share its Emax? I mean this molecule: Clc1cccc2c1CC1(CC2)CN=CN1 (configuration not stated)
A) 95

Q) Param item = Cc1cc2c(cc1C)CC1(CC2)CN=CN1 (configuration not stated) ; retrieve measured Emax.
A) 64

Q) Any idea what Emax was measured for FC(F)(F)c1ccc2c(c1)CC1(CC2)CN=CN1 (configuration not stated) ?
A) 7

Q) Data request, read-out Emax, for Oc1cccc2c1CC1(CC2)CN=CN1 (configuration not stated)
A) 66
